Origin of measurements: patent US9815846B2

Target: human TrkA receptor (Homo sapiens (Human), UniProt P04629)
Sequence (P04629 33-796): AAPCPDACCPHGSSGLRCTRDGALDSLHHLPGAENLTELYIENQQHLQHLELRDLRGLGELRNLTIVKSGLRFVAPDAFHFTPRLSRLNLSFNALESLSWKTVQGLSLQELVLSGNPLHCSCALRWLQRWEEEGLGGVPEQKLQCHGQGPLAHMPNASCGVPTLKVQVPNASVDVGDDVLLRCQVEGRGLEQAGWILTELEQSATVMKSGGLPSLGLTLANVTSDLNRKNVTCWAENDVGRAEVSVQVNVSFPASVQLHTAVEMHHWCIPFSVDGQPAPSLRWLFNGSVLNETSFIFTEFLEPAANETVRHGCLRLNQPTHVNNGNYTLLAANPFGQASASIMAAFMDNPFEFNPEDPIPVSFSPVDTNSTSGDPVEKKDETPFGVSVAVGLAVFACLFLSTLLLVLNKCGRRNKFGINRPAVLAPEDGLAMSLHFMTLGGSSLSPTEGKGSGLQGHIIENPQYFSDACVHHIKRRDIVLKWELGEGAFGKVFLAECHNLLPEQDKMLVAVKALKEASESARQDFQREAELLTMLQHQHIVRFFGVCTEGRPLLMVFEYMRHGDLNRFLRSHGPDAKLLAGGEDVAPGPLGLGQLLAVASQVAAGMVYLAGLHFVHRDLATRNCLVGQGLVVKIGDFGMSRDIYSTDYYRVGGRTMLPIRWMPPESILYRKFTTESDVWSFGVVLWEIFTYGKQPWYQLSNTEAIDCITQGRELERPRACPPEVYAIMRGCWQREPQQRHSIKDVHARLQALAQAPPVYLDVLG
Experiment: DiscoverX PathHunter TrkA functional assay (NGF-stimulated U2OS cells)
Settings: U2OS cells expressing human TrkA-PK, Shc1-EA and p75NTR; compound 1 h, then NGF at ~80% of maximal response for 3 h; luminescence
pIC50: −log10 of the molar value.
Readout Name: pIC50

// map CN(C)C(=O)c1cnc(-c2ccccc2)c(NC(=O)c2cc(-c3ccn(C)n3)c(C(F)(F)F)cc2F)c1 [Example 82] to recorded pIC50 (system: human TrkA receptor (Homo sapiens (Human), UniProt P04629)) 7.96

[P] O=C(Nc1cc(Cc2cnco2)cnc1-c1ccccc1)c1cc(-c2ncccn2)c(C(F)(F)F)cc1F [Example 204]
[Q] Cc1ncc(NC(=O)c2ccc(C(F)(F)F)c(-c3ncco3)c2)c(-c2ccccc2)n1 [Example 20]
Out of P and Q , name the one with the higher pIC50. Record your answer as the label of the chosen record. P
